System: SF-539 CNS
MEASUREMENT DESCRIPTION: NCI tumour cell line growth inhibition, 48 h
MEASUREMENT TYPE: TGI

Worked cases, TGI given:
1. C=CCSc1n[nH]c(-c2cccs2)n1: > 100 µM
2. CCOC(=O)C(=Cc1ccc(Br)cc1)C(=O)OCC: 3.13 µM
3. Nc1nc(Cl)cc(Nc2ccc3c(c2)CCC3)n1: > 100 µM
4. Cc1ccc(NC2=C(Cl)C(=O)c3nc(C)ccc3C2=O)cc1: 3.11 µM
5. Cc1cccc(C)c1NC(=S)/N=C/C1=C(O)c2ccccc2C1=O: > 59.9 µM

Can you give me TGI for all of these, one by one?
1. O=C1C(Nc2ccccn2)=C(I)C(=O)c2ncccc21
2. O=C(O)/C(=C\c1ccccc1)Cc1ccccc1
3. Clc1ccc2c(NCCCN3CCN(c4nc(-n5ccnc5)nc5ccccc45)CC3)ccnc2c1
4. C=C(CO)CC(O)c1ccccc1 (stereo not given)

A.
2.69 µM
> 100 µM
3.34 µM
> 100 µM

Kindly give each listed record's TGI.
1. C/C=C/C=C/[C@H]1Cc2cc(O)cc(O)c2O1
2. N/C(=N\C(=S)N1CCCCC1)N1CCCCC1
3. Cc1[nH]n(-c2ccccc2)c(=S)c1C(=O)c1ccccc1
4. O=C(O)C1Cc2nc[nH]c2CN1 (stereo not given)

A.
["> 100 µM", "> 100 µM", "> 100 µM", "> 100 µM"]

Each compound below has a recorded value; state its TGI.
1. O=[N+]([O-])c1ccc2nc(N/N=C/c3ccc(O)cc3)sc2c1
2. CN(C)CC1(C)CC/C(=C\c2ccc3c(c2)OCO3)C1=O (stereo not given)
3. CCC(=S)N(C)O
4. CN/N=C(\C)CC(=O)Nc1cccc(Cl)c1C
5. CC1CC(=O)C(C(O)CC2CC(=O)N(c3ccccc3)C(=O)C2)C(C)C1 (stereo not given)
6. CC(C)OCN1COCN=C1NC#N
7. O=S(=O)(Nc1ccccc1S(=O)(=O)c1ccccc1)c1ccccc1

A.
> 100 µM
> 100 µM
84.1 µM
> 100 µM
> 100 µM
> 100 µM
> 100 µM

###

Tested on: NCI-H226 lung
MEASUREMENT DESCRIPTION: NCI tumour cell line growth inhibition, 48 h
Where a SMILES comes first, the peptide text is derived from it. [ ]: non-standard residue; d: D form. 2Nal = N[CH](Cc1ccc2ccccc2c1)C(=O)O
MEASUREMENT TYPE: TGI

1. Nc1nc(=O)n(C2OC(CO)C(O)C2O)cc1F (centres undefined): > 100 µM
2. CC(NC(=O)C(N)Cc1ccccc1)C(=O)NC(Cc1ccc(O)cc1)C(=O)NC(Cc1c[nH]c2ccccc12)C(=O)NC(CCCCN)C(=O)NC(C(=O)NC(C)C(=O)NC(Cc1ccc2ccccc2c1)C(N)=O)C(C)C (centres undefined) (H-FAYWKVA[2Nal]-NH2; configuration not given here): > 12.5 µM

Batch: TGI for all items listed.
1. Fc1cccc(F)c1C1SCc2nc3ccccc3n21 (centres undefined)
2. CCC(C)(C)NC1=C(NC(C)=O)C(=O)c2ccccc2C1=O
3. COCCN1C2=CCCCC2=Nc2c(N)nc(N)nc21
4. CC1=NN(C(=O)c2ccc(Cl)cc2)C(=O)/C1=C/c1cccc(O)c1
5. C(/COc1cccnc1)=N\NC1=NCCN1
6. CNC(=O)OCc1nc(S(C)=O)n(C)c1COC(=O)NC (centres undefined)

A.
1: > 100 µM; 2: > 75 µM; 3: > 100 µM; 4: > 100 µM; 5: > 100 µM; 6: > 100 µM

Q. Reported TGI for Cc1cccc(C)c1NC(=S)/N=C/C1=C(O)c2ccccc2C1=O : what is it?
A. > 100 µM
